# Tested on: DyP
# Type: biochemical, Geotrichum candidum Dec 1
# condition.description: metal ion 5 mM, 100 ppm Reactive blue 5; no addition = 100
Measured Specific activity (%), listed per entry.
measurement.kind: Specific activity (%)

[Cu+2]	75
[Zn+2]	69
[Na+] [Na^+, sodium]	81
[Ca+2]	81
[K+]	81

Source: patent US7041486B1
